Target Desc: UniProtKB P41145
Sequence (P41145 whole entry): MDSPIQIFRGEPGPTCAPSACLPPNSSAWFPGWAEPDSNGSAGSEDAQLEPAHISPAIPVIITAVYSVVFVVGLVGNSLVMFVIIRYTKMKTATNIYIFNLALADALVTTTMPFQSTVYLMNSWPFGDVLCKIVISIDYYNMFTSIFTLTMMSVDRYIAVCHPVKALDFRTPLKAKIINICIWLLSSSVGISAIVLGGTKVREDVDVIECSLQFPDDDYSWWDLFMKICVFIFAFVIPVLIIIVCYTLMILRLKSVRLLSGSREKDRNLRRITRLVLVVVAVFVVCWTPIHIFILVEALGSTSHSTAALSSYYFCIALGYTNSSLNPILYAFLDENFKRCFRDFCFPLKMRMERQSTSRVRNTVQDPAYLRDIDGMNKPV
pKi: −log10 of the molar value.

- Structure Notation: "NC(=O)[C@]1(c2ccc(F)cn2)C[C@H]2CC[C@@H](C1)N2C(c1ccccc1Cl)c1ccccc1Cl"
  Target Desc: "UniProtKB P41145"
  pKi: 5.79

====

Target Desc: Nociceptin receptor (Homo sapiens, UniProt P41146)
Sequence (P41146 whole entry): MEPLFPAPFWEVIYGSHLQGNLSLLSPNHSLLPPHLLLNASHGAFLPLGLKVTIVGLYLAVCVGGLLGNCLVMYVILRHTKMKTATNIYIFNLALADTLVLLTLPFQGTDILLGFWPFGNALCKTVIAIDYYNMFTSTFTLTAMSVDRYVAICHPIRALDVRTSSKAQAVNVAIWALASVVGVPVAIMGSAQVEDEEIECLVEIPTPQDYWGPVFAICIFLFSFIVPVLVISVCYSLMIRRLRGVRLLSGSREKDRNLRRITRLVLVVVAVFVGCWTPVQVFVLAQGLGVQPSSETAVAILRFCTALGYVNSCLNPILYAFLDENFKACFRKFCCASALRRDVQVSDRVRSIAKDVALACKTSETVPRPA
Test Details: Agonist activity at human cloned ORL1 receptor assessed as stimulation of GTPgammaS binding
pEC50: −log10 of the molar value.
Outcome: Condition met for pEC50 of at least 7; Condition not met for anything lower.

- Structure Notation: "COC(=O)N[C@]1(Cc2ccc(Cl)cc2)C[C@H]2CC[C@@H](C1)N2C(c1ccccc1Cl)c1ccccc1Cl"
  Class Name: "Condition met"
- Structure Notation: "NC(=O)[C@@]1(Cc2ccc(F)cc2)C[C@H]2CC[C@@H](C1)N2C(c1ccccc1Cl)c1ccccc1Cl"
  Class Name: "Condition met"
- Structure Notation: "CC(=O)N[C@]1(c2ccccn2)C[C@H]2CC[C@@H](C1)N2C(c1ccccc1Cl)c1ccccc1Cl"
  Class Name: "Condition met"
- Structure Notation: "NC(=O)[C@]1(c2ccc(F)cn2)C[C@H]2CC[C@@H](C1)N2C(c1ccccc1Cl)c1ccccc1Cl"
  Class Name: "Condition met"
- Structure Notation: "NC(=O)[C@]1(c2ccc(Cl)cn2)C[C@H]2CC[C@@H](C1)N2C(c1ccccc1Cl)c1ccccc1Cl"
  Class Name: "Condition met"
- Structure Notation: "CC(=O)NC[C@]1(c2ccccc2)C[C@H]2CC[C@@H](C1)N2C(c1ccccc1Cl)c1ccccc1Cl"
  Class Name: "Condition not met"
